The measured values listed here are drawn from patent US20210130436A1.

Attribute: Ratio of PDL1:CD28
measured_target: T1, human PD-L1, full-length, on CHO cells (human, UniProt Q9NZQ7 19-290)
T1 construct: also called huPD-L1; CD274
T1 sequence (Q9NZQ7 19-290): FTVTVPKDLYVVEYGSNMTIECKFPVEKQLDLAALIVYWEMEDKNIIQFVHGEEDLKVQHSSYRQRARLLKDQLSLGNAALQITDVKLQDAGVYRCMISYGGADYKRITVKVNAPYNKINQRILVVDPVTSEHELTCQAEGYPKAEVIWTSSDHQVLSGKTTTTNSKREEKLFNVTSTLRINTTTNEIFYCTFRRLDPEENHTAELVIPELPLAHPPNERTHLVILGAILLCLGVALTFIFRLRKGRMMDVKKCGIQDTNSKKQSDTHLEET
method: flow cytometry; PD-L1 MFI over CD28 MFI
Only the number, expressed in ratio, is required.

# annotated cases, reported Ratio of PDL1:CD28 shown
Recorded Ratio of PDL1:CD28 for variant CD80 IgV-Fc E35D/D46V/M47L/V68M/L85Q (Fc fusion, not shown: small tags and cut ends; a dimerising Fc or GST) VIHVTKEVKEVATLSCGHNVSVEELAQTRIYWQKDKKMVLTMMSGVLNIWPEYKNRTIFDITNNLSIMILALRPSDEGTYECVVQKYEKDAFKREHLAEVTLSVKAD , please?
61.2

Recorded Ratio of PDL1:CD28 for variant CD80 IgV-Fc E35D/D46V/M47L/L85Q (Fc fusion, not shown: small tags and cut ends; a dimerising Fc or GST) VIHVTKEVKEVATLSCGHNVSVEELAQTRIYWQKDKKMVLTMMSGVLNIWPEYKNRTIFDITNNLSIVILALRPSDEGTYECVVQKYEKDAFKREHLAEVTLSVKAD , please?
28.1

Recorded Ratio of PDL1:CD28 for variant CD80 IgV-Fc E35D/M47L/L85Q (Fc fusion, not shown: small tags and cut ends; a dimerising Fc or GST) VIHVTKEVKEVATLSCGHNVSVEELAQTRIYWQKDKKMVLTMMSGDLNIWPEYKNRTIFDITNNLSIVILALRPSDEGTYECVVQKYEKDAFKREHLAEVTLSVKAD , please?
132

Recorded Ratio of PDL1:CD28 for variant CD80 IgV-Fc E35D/K89N (Fc fusion, not shown: small tags and cut ends; a dimerising Fc or GST) VIHVTKEVKEVATLSCGHNVSVEELAQTRIYWQKDKKMVLTMMSGDMNIWPEYKNRTIFDITNNLSIVILALRPSDEGTYECVVLKYENDAFKREHLAEVTLSVKAD , please?
3.2

Recorded Ratio of PDL1:CD28 for variant CD80 IgV-Fc V68M (Fc fusion, not shown: small tags and cut ends; a dimerising Fc or GST) VIHVTKEVKEVATLSCGHNVSVEELAQTRIYWQKEKKMVLTMMSGDMNIWPEYKNRTIFDITNNLSIMILALRPSDEGTYECVVLKYEKDAFKREHLAEVTLSVKAD , please?
3.1

Recorded Ratio of PDL1:CD28 for variant CD80 IgV-Fc M47V (Fc fusion, not shown: small tags and cut ends; a dimerising Fc or GST) VIHVTKEVKEVATLSCGHNVSVEELAQTRIYWQKEKKMVLTMMSGDVNIWPEYKNRTIFDITNNLSIVILALRPSDEGTYECVVLKYEKDAFKREHLAEVTLSVKAD , please?
33.7

Recorded Ratio of PDL1:CD28 for variant CD80 IgV-Fc K89N (Fc fusion, not shown: small tags and cut ends; a dimerising Fc or GST) VIHVTKEVKEVATLSCGHNVSVEELAQTRIYWQKEKKMVLTMMSGDMNIWPEYKNRTIFDITNNLSIVILALRPSDEGTYECVVLKYENDAFKREHLAEVTLSVKAD , please?
0.9

Recorded Ratio of PDL1:CD28 for variant CD80 IgV-Fc E35D/M47L/V68M (Fc fusion, not shown: small tags and cut ends; a dimerising Fc or GST) VIHVTKEVKEVATLSCGHNVSVEELAQTRIYWQKDKKMVLTMMSGDLNIWPEYKNRTIFDITNNLSIMILALRPSDEGTYECVVLKYEKDAFKREHLAEVTLSVKAD , please?
22.4

Others:
Recorded Ratio of PDL1:CD28 for variant CD80 IgV-Fc M47L/V68M/L85Q (Fc fusion, not shown: small tags and cut ends; a dimerising Fc or GST) VIHVTKEVKEVATLSCGHNVSVEELAQTRIYWQKEKKMVLTMMSGDLNIWPEYKNRTIFDITNNLSIMILALRPSDEGTYECVVQKYEKDAFKREHLAEVTLSVKAD , please?
66.3

Recorded Ratio of PDL1:CD28 for variant CD80 IgV-Fc E35D/N48K (Fc fusion, not shown: small tags and cut ends; a dimerising Fc or GST) VIHVTKEVKEVATLSCGHNVSVEELAQTRIYWQKDKKMVLTMMSGDMKIWPEYKNRTIFDITNNLSIVILALRPSDEGTYECVVLKYEKDAFKREHLAEVTLSVKAD , please?
33.7
